- measured target: Cytohesin-3 (Rattus norvegicus, UniProt P97696)
- Sequence (P97696 whole entry, the tested form may be a part): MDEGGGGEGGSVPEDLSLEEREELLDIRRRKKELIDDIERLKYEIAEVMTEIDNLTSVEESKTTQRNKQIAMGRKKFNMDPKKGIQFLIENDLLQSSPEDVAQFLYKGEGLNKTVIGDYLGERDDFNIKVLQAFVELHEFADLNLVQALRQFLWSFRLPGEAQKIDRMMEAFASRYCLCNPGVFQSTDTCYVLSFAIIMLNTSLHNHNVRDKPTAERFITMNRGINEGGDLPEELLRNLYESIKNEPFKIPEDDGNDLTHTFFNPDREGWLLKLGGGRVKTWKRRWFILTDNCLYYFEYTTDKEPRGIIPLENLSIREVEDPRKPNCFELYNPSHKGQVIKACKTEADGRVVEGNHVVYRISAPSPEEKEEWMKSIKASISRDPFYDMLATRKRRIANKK
- protocol notes: Binding affinity to recombinant rat brain Grp1 PH domain (amino acids 1 to 120) by SPR analysis
pKd: −log10 of the molar value.
parameter measured: pKd

smiles text: O=C(CCCC[C@@H]1SC[C@@H]2NC(=O)N[C@@H]21)NCCCCCCOP(=O)(O)O[C@@H]1[C@H](O)[C@H](O)[C@@H](OP(=O)(O)O)[C@H](OP(=O)(O)O)[C@H]1O
parameter measured: pKd
obs value: < 6.00
--
smiles text: O=C(CCCC[C@@H]1SC[C@@H]2NC(=O)N[C@@H]21)NCCCCCCOP(=O)(O)O[C@@H]1[C@@H](O)[C@H](OP(=O)(O)O)[C@@H](OP(=O)(O)O)[C@H](O)[C@@H]1O
parameter measured: pKd
obs value: < 6.00
--
smiles text: O=C(CCCC[C@@H]1SC[C@@H]2NC(=O)N[C@@H]21)NCCCCCCOP(=O)(O)O[C@H]1[C@H](O)[C@@H](OP(=O)(O)O)[C@H](OP(=O)(O)O)[C@@H](OP(=O)(O)O)[C@H]1O
parameter measured: pKd
obs value: 6.52

----------
- measured target: Cytohesin-3 (Rattus norvegicus, UniProt P97696)
- protocol notes: Binding affinity to recombinant rat brain Grp1 PH domain (amino acids 1 to 120) after 10 mins by pull-down assay
pKd: −log10 of the molar value.

smiles text: O=P(O)(O)O[C@H]1[C@H](O)[C@@H](OP(=O)(O)O)[C@H](OP(=O)(O)O)[C@@H](OP(=O)(O)O)[C@H]1O
pKd: 7.00

smiles text: O=C(CCCC[C@@H]1SC[C@@H]2NC(=O)N[C@@H]21)NCCCCCCOP(=O)(O)O[C@H]1[C@H](O)[C@@H](OP(=O)(O)O)[C@H](OP(=O)(O)O)[C@@H](OP(=O)(O)O)[C@H]1O
pKd: 6.85

----------
- measured target: 1-phosphatidylinositol 4,5-bisphosphate phosphodiesterase delta-1 (Homo sapiens)
- Sequence (P51178 whole entry, the tested form may be a part): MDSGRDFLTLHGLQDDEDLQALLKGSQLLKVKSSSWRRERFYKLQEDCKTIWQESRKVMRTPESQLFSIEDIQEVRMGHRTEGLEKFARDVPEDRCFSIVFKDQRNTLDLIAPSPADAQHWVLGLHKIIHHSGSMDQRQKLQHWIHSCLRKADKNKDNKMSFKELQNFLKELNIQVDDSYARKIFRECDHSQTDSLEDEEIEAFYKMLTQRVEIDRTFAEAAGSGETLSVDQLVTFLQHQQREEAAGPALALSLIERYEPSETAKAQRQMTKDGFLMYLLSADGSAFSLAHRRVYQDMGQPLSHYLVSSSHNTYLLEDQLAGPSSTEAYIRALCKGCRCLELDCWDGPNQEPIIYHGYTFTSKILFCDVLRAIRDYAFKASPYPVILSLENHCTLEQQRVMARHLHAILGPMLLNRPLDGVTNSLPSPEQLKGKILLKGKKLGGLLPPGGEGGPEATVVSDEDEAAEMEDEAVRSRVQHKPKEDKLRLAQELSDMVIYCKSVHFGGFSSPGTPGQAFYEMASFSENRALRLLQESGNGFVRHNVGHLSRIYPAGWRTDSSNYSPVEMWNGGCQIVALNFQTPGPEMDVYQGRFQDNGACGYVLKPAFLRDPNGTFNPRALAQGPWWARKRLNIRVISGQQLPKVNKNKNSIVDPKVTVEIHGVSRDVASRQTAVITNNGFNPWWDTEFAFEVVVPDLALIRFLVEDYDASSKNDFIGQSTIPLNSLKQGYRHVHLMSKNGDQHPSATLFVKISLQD
- protocol notes: Binding affinity to PLCdelta1 PH domain
pKd: −log10 of the molar value.
parameter measured: pKd

smiles text: O=C(CCCC[C@@H]1SC[C@@H]2NC(=O)N[C@@H]21)NCCCCCCOP(=O)(O)O[C@H]1[C@H](O)[C@@H](OP(=O)(O)O)[C@H](OP(=O)(O)O)[C@@H](OP(=O)(O)O)[C@H]1O
measured target: 1-phosphatidylinositol 4,5-bisphosphate phosphodiesterase delta-1 (Homo sapiens)
parameter measured: pKd
obs value: 6.60

// data source = ChEMBL document CHEMBL1914391
